Listed here: items and their measured % inhibition of EGFR phosphorylation at 100 nM binder, cell-based assay.
- systemUnderTest: EGFR on the surface of human tumour cells (A431, H292) (human, UniProt P00533 25-1210)
- protocolText: cell-based or functional assay
Output spec: scalar in %, unitless text.

Below: 2 binders and their reported % inhibition of EGFR phosphorylation at 100 nM binder, cell-based assay.
{"binder": "E72 (designed binder) 10Fn3 domain: MGVSDVPRDLEVVAATPTSLLISWSATRTLYQYYRITYGETGGNSPVQEFTVPYDVHTATISGLKPGVDYTITVYAVTDYYNMVTYEYNYHLTPISINYRTEIDKPSQ", "reportedResult": 82.8}
{"binder": "E69 (designed binder) 10Fn3 domain: MGVSDVPRDLEVVAATPTSLLISWHAGMAVYQYYRITYGETGGNSPVQEFTVPGDVLTATISGLKPGVDYTITVYAVTDFFNPVTHEYMYHTIPISINYRTEIDKPSQ", "reportedResult": 85.1}

Reported % inhibition of EGFR phosphorylation at 100 nM binder, cell-based assay for E64 (designed binder) 10Fn3 domain: MGVSDVPRDLEVVAATPTSLLISWDSGNGTYQYYRITYGETGGNSPVQEFTVPYRVYTATISGLKPGVDYTITVYAVTDYYNPATHEYTYELRPISINYRTEIDKPSQ : what is it?
78.2

Reported % inhibition of EGFR phosphorylation at 100 nM binder, cell-based assay for E62 (designed binder) 10Fn3 domain: MGVSDVPRDLEVVAATPTSLLISWCLDGQLYQYYRITYGETGGNSPVQEFTVPGSIVTATISGLKPGVDYTITVYAVTDWYNLATHEYNYRVTPISINYRTEIDKPSQ : what is it?
78.9
